src = patent US9686985B2

Test: log P by HPLC on reversed-phase column (EEC Directive 79/831 Annex V.A8)
Assay type: physicochemical
Settings: Table 1; HPLC C18, 40° C., 0.1% aqueous formic acid and acetonitrile gradient
Description: In table 1, the log P values were determined in accordance with EEC Directive 79/831 Annex V.A8 by HPLC (High Performance Liquid Chromatography) on a reversed-phase column (C 18), using the method described below: Temperature: 40° C.; Mobile phases: 0.1% aqueous formic acid and acetonitrile; linear gradient from 10% acetonitrile to 90% acetonitrile. […]
# maps each entry to its logP
measured.endpoint: logP

INSERT INTO assay_data (molecule, result) VALUES
  ('Cn1nc(C(F)F)c(C(=O)N(CC2CCCc3cccc(Cl)c32)C2CC2)c1Cl (stereo not drawn) [I.29]', 4.26),
  ('Cn1nc(C(F)F)c(C(=O)N(CC2CCc3ccc(C(F)(F)F)cc32)C2CC2)c1Cl (stereo not drawn) [I.16]', 4.04),
  ('Cn1nc(C(F)F)c(C(=O)N(CC2CCc3ccccc32)C2CC2)c1F (stereo not drawn) [I.2]', 3.35),
  ('Cn1nc(C(F)F)c(C(=S)N(CC2CCc3c(Cl)cc(Cl)cc32)C2CC2)c1F (stereo not drawn) [I.20]', 5.22),
  ('Cn1nc(C(F)F)c(C(=O)N(CC2CCc3c(Cl)cc(Cl)cc32)C2CC2)c1Cl (stereo not drawn) [I.19]', 4.59),
  ('Cn1nc(C(F)F)c(C(=O)N(CC2CCSc3ccc(F)cc32)C2CC2)c1F (stereo not drawn) [I.35]', 3.44),
  ('Cn1nc(C(F)F)c(C(=O)N(CC2CCc3cc(Cl)ccc32)C2CC2)c1Cl (stereo not drawn) [I.13]', 3.99),
  ('Cc1cccc2c1CCC2CN(C(=O)c1c(C(F)F)nn(C)c1Cl)C1CC1 (stereo not drawn) [I.4]', 3.87),
  ('Cn1nc(C(F)F)c(C(=O)N(CC2CCSc3ccc(Cl)cc32)C2CC2)c1F (stereo not drawn) [I.36]', 3.83);

---

tested on: Sphaerotheca fuliginea; experiment: Example B: in vivo preventive test on Sphaerotheca fuliginea (powdery mildew on cucurbits); settings: table B; 500 ppm; gherkin plants; grading 12 days after contamination
Measured Efficacy of individual entries
measured.endpoint: Efficacy (%)

INSERT INTO assay_data (compound, tested_target, measured_endpoint, unit_symbol, result_number) VALUES
  ('Cn1nc(C(F)F)c(C(=O)N(CC2CCc3c(F)cccc32)C2CC2)c1F (stereo not drawn)', 'Sphaerotheca fuliginea', 'Efficacy', '%', 100),
  ('COc1cccc2c1CCCC2CN(C(=S)c1c(C(F)F)nn(C)c1F)C1CC1 (stereo not drawn)', 'Sphaerotheca fuliginea', 'Efficacy', '%', 80),
  ('Cn1nc(C(F)F)c(C(=O)N(CC2CCCCc3ccccc32)C2CC2)c1F (stereo not drawn)', 'Sphaerotheca fuliginea', 'Efficacy', '%', 100),
  ('Cn1nc(C(F)F)c(C(=O)N(CC2CCc3ccccc32)C2CC2)c1Cl (stereo not drawn)', 'Sphaerotheca fuliginea', 'Efficacy', '%', 83),
  ('Cn1nc(C(F)F)c(C(=O)N(CC2CCc3cccc(Cl)c32)C2CC2)c1F (stereo not drawn)', 'Sphaerotheca fuliginea', 'Efficacy', '%', 100),
  ('Cn1nc(C(F)F)c(C(=O)N(CC2CC(C)(C)c3ccccc32)C2CC2)c1Cl (stereo not drawn)', 'Sphaerotheca fuliginea', 'Efficacy', '%', 100),
  ('Cn1nc(C(F)F)c(C(=O)N(CC2CC(C)(C)c3ccccc32)C2CC2)c1F (stereo not drawn)', 'Sphaerotheca fuliginea', 'Efficacy', '%', 100),
  ('Cc1ccc2c(c1)CCC2CN(C(=O)c1c(C(F)F)nn(C)c1Cl)C1CC1 (stereo not drawn)', 'Sphaerotheca fuliginea', 'Efficacy', '%', 100),
  ('Cn1nc(C(F)F)c(C(=O)N(CC2CCCc3cccc(Cl)c32)C2CC2)c1F (stereo not drawn)', 'Sphaerotheca fuliginea', 'Efficacy', '%', 100);
